Every entry's value here was drawn from ChEMBL document CHEMBL2440075.

Consider the following molecules; for each one, report its pKi.
target of assay: 5-hydroxytryptamine receptor 5A (Homo sapiens, UniProt P47898)
Sequence (P47898 whole entry): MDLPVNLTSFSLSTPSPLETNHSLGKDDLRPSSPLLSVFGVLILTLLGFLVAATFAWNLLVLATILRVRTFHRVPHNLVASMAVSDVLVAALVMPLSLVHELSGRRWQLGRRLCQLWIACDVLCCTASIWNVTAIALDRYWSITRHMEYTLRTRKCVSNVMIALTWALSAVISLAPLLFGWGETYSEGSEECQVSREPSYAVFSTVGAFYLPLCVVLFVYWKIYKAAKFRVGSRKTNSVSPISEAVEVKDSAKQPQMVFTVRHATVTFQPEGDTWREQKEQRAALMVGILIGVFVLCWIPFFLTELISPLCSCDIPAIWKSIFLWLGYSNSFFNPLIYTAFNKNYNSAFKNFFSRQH
experiment: Displacement of [3H]LSD from human recombinant 5HT5A receptor expressed in Flp-In CHO cells
Answers are plain numbers, as −log10 of the molar value.

So what does the record say about pKi for CN1C(=N)N/C(=C/c2c[nH]c3cccc(Br)c23)C1=O ?
5.89

Can you share its pKi? I mean this molecule: C/N=C1\NC(=O)/C(=C/c2c[nH]c3c(Br)cccc23)N1
5.48

I have this molecule here, C/N=C1\N(C)C(=O)/C(=C\c2c[nH]c3cccc(Br)c23)N1C , and I need its recorded pKi.
5.29

# query: pKi of entry N=C1NC(=O)/C(=C\c2c[nH]c3ccccc23)N1
7.00

Item under review: CN1C(=N)N(C)/C(=C/c2c[nH]c3cccc(Br)c23)C1=O . Reported pKi?
5.11

For every item below, please supply its pKi.
1. N=C1NC(=O)/C(=C\c2c[nH]c3cc(Br)ccc23)N1
2. CN1C(=N)N(C)/C(=C/c2c[nH]c3cc(Br)ccc23)C1=O
3. C/N=C1\NC(=O)/C(=C\c2c[nH]c3cccc(Br)c23)N1C

[6.74, 5.02, 5.84]

Please give pKi, item by item, for the list that follows.
1. CN1C(=N)N(C)/C(=C/c2c[nH]c3ccc(Br)cc23)C1=O
2. N=C1NC(=O)/C(=C\c2c[nH]c3c(Br)cccc23)N1
3. C/N=C1\N(C)C(=O)/C(=C\c2c[nH]c3cc(Br)ccc23)N1C

5.17
6.95
5.33

---

Recorded below: pKi, system 5-hydroxytryptamine receptor 2A (Rattus norvegicus, UniProt P14842).
Give bare numbers, as −log10 of the molar value.

Below, 5 molecules whose answers are already recorded.
Reported pKi, molecule CN1C(=N)NC(=O)/C1=C\c1c[nH]c2cccc(Br)c12 : ____
5.85

For the molecule C/N=C1\NC(=O)/C(=C/c2c[nH]c3c(Br)cccc23)N1 , what pKi is on record?
5.44

Please give the measured pKi for this molecule: C/N=C1\NC(=O)/C(=C\c2c[nH]c3cccc(Br)c23)N1C
6.18

Name the reported pKi value associated with the molecule C/N=C1\NC(=O)/C(=C\c2c[nH]c3c(Br)cccc23)N1C
5.10

For N=C1NC(=O)/C(=C\c2c[nH]c3ccc(Br)cc23)N1 , what is its reported pKi?
7.24

Would you mind listing pKi for each of the following molecules?
1. N=C1NC(=O)/C(=C\c2c[nH]c3c(Br)cccc23)N1
2. N=C1NC(=O)/C(=C\c2c[nH]c3cc(Br)ccc23)N1

5.67
5.50

---

Give pKi for every item shown.
target of assay: 5-hydroxytryptamine receptor 6 (Homo sapiens)
Sequence (P50406 whole entry): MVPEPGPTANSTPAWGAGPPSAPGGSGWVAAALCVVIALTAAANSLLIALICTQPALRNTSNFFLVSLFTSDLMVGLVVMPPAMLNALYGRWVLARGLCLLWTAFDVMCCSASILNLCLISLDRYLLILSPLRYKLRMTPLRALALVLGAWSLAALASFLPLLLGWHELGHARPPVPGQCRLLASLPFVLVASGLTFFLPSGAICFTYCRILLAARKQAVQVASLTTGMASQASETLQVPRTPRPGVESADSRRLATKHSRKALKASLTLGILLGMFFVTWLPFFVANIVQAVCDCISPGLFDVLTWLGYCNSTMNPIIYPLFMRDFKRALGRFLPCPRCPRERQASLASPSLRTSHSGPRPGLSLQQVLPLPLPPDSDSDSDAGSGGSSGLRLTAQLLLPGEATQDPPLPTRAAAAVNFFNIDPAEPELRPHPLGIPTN
experiment: Displacement of [3H]LSD from human recombinant 5HT6 receptor stably expressed in HEK cells
Numbers only, as −log10 of the molar value.

// known answers, use as guide
Which pKi value is on record for C/N=C1\NC(=O)/C(=C/c2c[nH]c3ccc(Br)cc23)N1 ?
6.07

Need pKi of C/N=C1\NC(=O)/C(=C/c2c[nH]c3cccc(Br)c23)N1 , thanks.
5.43

Value lookup for pKi; key = N=C1NC(=O)/C(=C\c2c[nH]c3c(Br)cccc23)N1
5.85

Entry C/N=C1\N(C)C(=O)/C(=C\c2c[nH]c3cccc(Br)c23)N1C has what pKi?
5.12

Now, please, on to the next compound.
Item under review: C/N=C1\N(C)C(=O)/C(=C\c2c[nH]c3c(Br)cccc23)N1C . Reported pKi?
5.14

---

target of assay: 5-hydroxytryptamine receptor 1E (Homo sapiens, UniProt P28566)
Sequence (P28566 whole entry): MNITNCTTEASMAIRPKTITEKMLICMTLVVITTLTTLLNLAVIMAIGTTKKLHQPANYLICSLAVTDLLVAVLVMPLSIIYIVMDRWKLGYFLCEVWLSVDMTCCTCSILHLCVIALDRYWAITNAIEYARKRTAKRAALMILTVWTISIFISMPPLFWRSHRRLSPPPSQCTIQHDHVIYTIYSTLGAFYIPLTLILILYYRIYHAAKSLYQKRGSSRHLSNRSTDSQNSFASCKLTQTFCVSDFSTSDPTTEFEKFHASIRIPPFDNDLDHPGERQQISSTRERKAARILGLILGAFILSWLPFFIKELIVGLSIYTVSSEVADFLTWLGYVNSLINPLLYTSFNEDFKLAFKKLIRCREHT
experiment: Displacement of [3H]5-HT from human recombinant 5HT1E receptor stably expressed in HEK cells
Assay type: cell-based, HEK293
readout type: Ki

Look over these answered cases.
Recorded Ki for C/N=C1\N(C)C(=O)/C(=C\c2c[nH]c3ccccc23)N1C , please?
> 10 µM

Quick one: Ki of C/N=C1/N/C(=C/c2c[nH]c3c(Br)cccc23)C(=O)N1C ?
> 10 µM

GET /values?readout=Ki&item= C/N=C1\N(C)C(=O)/C(=C\c2c[nH]c3cccc(Br)c23)N1C
> 10 µM

Item CN1C(=N)N/C(=C/c2c[nH]c3ccccc23)C1=O has what recorded Ki?
> 10 µM

Please look up its Ki: N=C1NC(=O)/C(=C\c2c[nH]c3c(Br)cccc23)N1
> 10 µM

Bench note: what Ki did C/N=C1\NC(=O)/C(=C\c2c[nH]c3c(Br)cccc23)N1C show?
> 10 µM

Ki for C/N=C1/N/C(=C/c2c[nH]c3cc(Br)ccc23)C(=O)N1C ?
> 10 µM

Can you share its Ki? I mean this compound: CN1C(=N)N(C)/C(=C/c2c[nH]c3cccc(Br)c23)C1=O
> 10 µM

Provide reported Ki for each item, in the same order as listed.
1. CN1C(=N)N/C(=C/c2c[nH]c3c(Br)cccc23)C1=O
2. N=C1NC(=O)/C(=C\c2c[nH]c3cc(Br)ccc23)N1
3. CN1C(=N)NC(=O)/C1=C\c1c[nH]c2ccc(Br)cc12

1. > 10 µM
2. > 10 µM
3. > 10 µM

---

target of assay: 5-hydroxytryptamine receptor 1A (Homo sapiens)
Sequence (P08908 whole entry): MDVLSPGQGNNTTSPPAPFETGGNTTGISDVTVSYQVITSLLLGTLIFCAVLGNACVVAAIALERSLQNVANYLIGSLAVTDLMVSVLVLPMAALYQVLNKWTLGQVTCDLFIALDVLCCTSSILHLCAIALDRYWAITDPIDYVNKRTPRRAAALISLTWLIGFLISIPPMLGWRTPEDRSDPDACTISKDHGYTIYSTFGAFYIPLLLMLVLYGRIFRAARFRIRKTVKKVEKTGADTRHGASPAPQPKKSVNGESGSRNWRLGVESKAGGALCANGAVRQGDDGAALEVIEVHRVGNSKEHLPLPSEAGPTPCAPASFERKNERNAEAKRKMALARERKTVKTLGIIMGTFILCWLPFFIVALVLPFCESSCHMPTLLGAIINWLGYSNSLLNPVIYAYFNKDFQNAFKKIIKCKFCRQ
experiment: Displacement of [3H]way100635 from human recombinant 5HT1A receptor stably expressed in CHO cells
The label MET is reserved for Ki strictly under 3 µM; NOT MET covers values equal to or above it.

Is it true that Ki reported for CN1C(=N)N/C(=C/c2c[nH]c3c(Br)cccc23)C1=O is less than 3 µM?
NOT MET

Input C/N=C1\NC(=O)/C(=C\c2c[nH]c3cccc(Br)c23)N1C ; condition: Ki strictly below 3 µM. Does it hold?
NOT MET

Regarding C/N=C1\N(C)C(=O)/C(=C\c2c[nH]c3cccc(Br)c23)N1C , kindly confirm whether its Ki is beneath 3 µM.
NOT MET

Hello, is Ki of the following molecule strictly smaller than 3 µM? CN1C(=N)NC(=O)/C1=C\c1c[nH]c2ccc(Br)cc12
NOT MET

Is Ki of C/N=C1\NC(=O)/C(=C\c2c[nH]c3c(Br)cccc23)N1C strictly below 3 µM?
NOT MET

Kindly review the next molecule as well.
Consider the molecule CN1C(=N)N(C)/C(=C/c2c[nH]c3c(Br)cccc23)C1=O . Is its Ki strictly less than 3 µM?
MET

---

target of assay: 5-hydroxytryptamine receptor 2C (Homo sapiens, UniProt P28335)
Sequence (P28335 whole entry): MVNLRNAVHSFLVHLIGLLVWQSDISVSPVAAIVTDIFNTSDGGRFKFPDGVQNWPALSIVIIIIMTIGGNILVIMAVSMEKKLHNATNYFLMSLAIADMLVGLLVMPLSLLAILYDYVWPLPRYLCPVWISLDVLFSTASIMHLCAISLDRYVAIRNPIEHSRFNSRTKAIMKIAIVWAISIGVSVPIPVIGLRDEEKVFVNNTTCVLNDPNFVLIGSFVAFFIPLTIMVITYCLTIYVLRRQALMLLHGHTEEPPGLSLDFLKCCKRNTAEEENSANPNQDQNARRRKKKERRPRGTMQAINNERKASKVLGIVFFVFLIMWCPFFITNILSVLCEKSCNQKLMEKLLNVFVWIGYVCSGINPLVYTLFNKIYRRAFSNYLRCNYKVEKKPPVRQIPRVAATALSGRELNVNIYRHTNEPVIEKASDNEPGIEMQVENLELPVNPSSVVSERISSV
experiment: Displacement of [3H]mesulergine from human recombinant 5HT2C receptor expressed in Flp-IN HEK cells
Answer each item with its documented pKi.
Answers are plain numbers, as −log10 of the molar value.

Here are 4 compounds together with their reported answers.
I would be grateful if you could share the reported pKi for CN1C(=N)N(C)/C(=C/c2c[nH]c3ccccc23)C1=O [APLYSINOPSIN] .
5.00

Which value of pKi has been reported for N=C1NC(=O)/C(=C\c2c[nH]c3c(Br)cccc23)N1 in the records?
6.08

GET /values?readout=pKi&item= C/N=C1\N(C)C(=O)/C(=C\c2c[nH]c3cc(Br)ccc23)N1C
5.91

Any idea what pKi was measured for CSC1=NC(=O)/C(=C/c2c[nH]c3cccc(Br)c23)N1 ?
6.05

Each compound below has a reported value. Please supply its pKi.
1. CN1C(=N)N/C(=C/c2c[nH]c3cccc(Br)c23)C1=O
2. C/N=C1/N/C(=C/c2c[nH]c3cc(Br)ccc23)C(=O)N1C

5.77
5.00

---

target of assay: 5-hydroxytryptamine receptor 6 (Homo sapiens)
experiment: Displacement of [3H]LSD from human recombinant 5HT6 receptor stably expressed in HEK cells
Labelling: Ki reported below 2 µM becomes rule met; at or above becomes rule not met.

Would you kindly verify if Ki of C/N=C1\NC(=O)/C(=C\c2c[nH]c3c(Br)cccc23)N1C is strictly less than 2 µM?
rule not met

More entries:
Determine if N=C1NC(=O)/C(=C\c2c[nH]c3ccc(Br)cc23)N1 shows Ki strictly lower than 2 µM.
rule met

Does C/N=C1\N(C)C(=O)/C(=C\c2c[nH]c3ccccc23)N1C have Ki strictly under 2 µM?
rule met

Problem: For the molecule CN1C(=N)N(C)/C(=C/c2c[nH]c3ccccc23)C1=O , is Ki under 2 µM?
rule not met

# strict comparison: is reported Ki < 2 µM? input = C/N=C1\NC(=O)/C(=C\c2c[nH]c3cccc(Br)c23)N1C
rule met

---

target of assay: 5-hydroxytryptamine receptor 5A (Homo sapiens, UniProt P47898)
experiment: Displacement of [3H]LSD from human recombinant 5HT5A receptor expressed in Flp-In CHO cells
readout type: log10(Ki) (log10 of the value in µM)
Note: values are log10 of Ki expressed in µM.

Observe how each entry below is paired with its result.
Find the recorded log10(Ki) belonging to C/N=C1\NC(=O)/C(=C/c2c[nH]c3cccc(Br)c23)N1 and report it.
0.53

Which log10(Ki) reading was recorded for the compound CN1C(=N)NC(=O)/C1=C\c1c[nH]c2c(Br)cccc12 ?
0.12

What measured log10(Ki) goes with CN1C(=N)N/C(=C/c2c[nH]c3cc(Br)ccc23)C1=O ?
0.73

Which value of log10(Ki) has been reported for C/N=C1\N(C)C(=O)/C(=C\c2c[nH]c3c(Br)cccc23)N1C in the records?
0.84

# map each compound to its log10(Ki)
1. CN1C(=N)N/C(=C/c2c[nH]c3ccc(Br)cc23)C1=O
2. C/N=C1\NC(=O)/C(=C\c2c[nH]c3c(Br)cccc23)N1C
3. N=C1NC(=O)/C(=C\c2c[nH]c3ccc(Br)cc23)N1

1. 0.37
2. 0.15
3. -1.05

For every record below, what is its log10(Ki)?
1. N=C1NC(=O)/C(=C\c2c[nH]c3cccc(Br)c23)N1
2. CN1C(=N)N/C(=C/c2c[nH]c3c(Br)cccc23)C1=O
3. C/N=C1\N(C)C(=O)/C(=C\c2c[nH]c3ccc(Br)cc23)N1C

-0.91
0.19
0.96
